Target: AthDHAD-V496I (Arabidopsis thaliana, UniProt Q9LIR4, V530I)
Sequence (Q9LIR4 35-608 V530I): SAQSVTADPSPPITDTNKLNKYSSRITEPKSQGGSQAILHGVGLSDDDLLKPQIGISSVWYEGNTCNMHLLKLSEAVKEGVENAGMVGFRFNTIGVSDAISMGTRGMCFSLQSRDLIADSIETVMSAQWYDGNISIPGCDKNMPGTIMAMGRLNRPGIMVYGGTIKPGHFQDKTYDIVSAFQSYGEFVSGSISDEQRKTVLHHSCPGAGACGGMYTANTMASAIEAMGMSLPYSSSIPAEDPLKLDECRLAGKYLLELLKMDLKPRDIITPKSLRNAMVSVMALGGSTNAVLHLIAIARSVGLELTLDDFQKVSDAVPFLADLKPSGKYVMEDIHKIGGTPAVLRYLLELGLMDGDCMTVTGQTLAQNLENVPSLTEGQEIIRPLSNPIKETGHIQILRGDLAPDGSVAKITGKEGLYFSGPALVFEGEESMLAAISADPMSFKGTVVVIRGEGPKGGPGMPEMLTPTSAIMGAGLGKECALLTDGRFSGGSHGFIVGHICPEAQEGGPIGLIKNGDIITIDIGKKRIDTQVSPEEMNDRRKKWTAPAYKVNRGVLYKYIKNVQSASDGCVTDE
Assay: In vitro activity and AA inhibition assay of AthDHAD mutant V496I
outcome_measure: IC50
Returns: string containing the numeric result and its unit.

stdin: For the compound CC(C)=C1CCC23COC(C2)C(O)(C(=O)O)CCC13 (stereo not shown) , give its reported IC50.
stdout: 1.14 µM

====

Target: AthDHAD-V497L (Arabidopsis thaliana, UniProt Q9LIR4, V531L)
Test: In vitro activity and AA inhibition assay of AthDHAD mutant V497L
outcome_measure: IC50
Just the number plus its unit, please.

stdin: Write down IC50 measured for item CC(C)=C1CCC23COC(C2)C(O)(C(=O)O)CCC13 (stereo not shown) [AA, aspterric acid]
stdout: 59 nM
